# Test system: 4'-phosphopantetheinyl transferase ffp (Bacillus subtilis) (UniProt Q9F4F7)
# Test name: qHTS Assay for Inhibitors of Bacillus subtilis Sfp phosphopantetheinyl transferase (PPTase); note: potency is the fitted concentration of half-maximal effect;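 note: the enzyme is Sfp with the accession as filed and its product quenches rhodamine fluorescence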
# Cond: Biochemical Sfp PPTase activity
# Text: Assay Submitter: Michael Burkart, University of California, San Diego Screening Center PI: Austin, C.P. Screening Center: NIH Chemical Genomics Center [NCGC] […] In search of small molecule Sfp-PPTase inhibitors, a fluorescence quenching assay was developed for detection of Bacillus subtilis Sfp-PPTase enzymatic activity in a miniaturized high-throughput format. […]
Screen size: about 310,000 compounds; about 11,000 (3.5%) were called active. Roughly 4% stayed inconclusive and do not appear here. This is one part of a sample in which actives are shown more often than they occur.
Metric name: Potency

Molecule: Oc1ccc(C2Nc3cccc4cccc(c34)N2)cc1
Assay result: 35.5 µM (active)

Molecule: O=c1[nH]c2ccccc2n2c(-c3ccccc3)nnc12
Assay result: 1.26 µM (active)

Molecule: O=C1CC(Sc2ncn[nH]2)C(=O)N1c1ccccc1 (stereo not drawn)
Assay result: 56.2 µM (active)

Molecule: CCCc1nnc(NC(=O)CN2C(=O)c3ccccc3S2(=O)=O)s1
Assay result: 22.4 µM (active)

Molecule: Cc1ccc(N2C(=O)CC(Sc3ncn[nH]3)C2=O)cc1 (stereo not drawn)
Assay result: 56.2 µM (active)

Molecule: Cc1cc(C2=NNC(=Nc3ccc(S(=O)(=O)N4CCOCC4)cc3)SC2)c(C)n1CC1CCCO1 (stereo not drawn)
Assay result: 22.4 µM (active)

Molecule: Cc1nc2c(c(=O)n1Cc1ccco1)c1nc3ccccc3nc1n2Cc1ccccc1
Assay result: 8.91 µM (active)

Molecule: COC(=O)c1cc(C)sc1NC(=O)CC1Nc2ccccc2NC1=O (stereo not drawn)
Assay result: 79.4 µM (active)

Molecule: Cc1ccc(-c2cc(C(=O)N/N=C/C=C/c3ccco3)c3ccccc3n2)cc1C
Assay result: 28.2 µM (active)

Molecule: O=C(c1c(Cl)cccc1Cl)N1CCN(c2cccc3[nH]ccc23)CC1
Assay result: 89.1 µM (active)

Molecule: CSc1nnc(SCc2nc3sc(C(=O)O)c(C)c3c(=O)[nH]2)s1
Assay result: 12.6 µM (active)

Molecule: Cc1cccc(-n2c(N)c(C(=O)N3CCN(C)CC3)sc2=S)c1
Assay result: 3.55 µM (active)

Molecule: Cn1c2ccccc2c(=O)c2c(=O)n(Cc3ccco3)c(COc3ccccc3)nc21
Assay result: 8.91 µM (active)

Molecule: COc1ccc(N2CCN(Cc3ccc(Br)s3)CC2)cc1
Assay result: 39.8 µM (active)

Molecule: N#Cc1ccccc1-n1c(N)c(C(=O)N2CCCC2)sc1=S
Assay result: 25.1 µM (active)

Molecule: Cc1cc(=O)[nH]c(S)c1C#N
Assay result: 2.24 µM (active)

Molecule: COC(=O)[C@@]1(Cc2ccccc2)[C@H]2c3cc(C(=O)N4CCCC4)n(Cc4ccc(C)o4)c3C[C@H]2CN1C(=O)c1ccccc1
Assay result: 56.2 µM (active)

Molecule: C=CCn1c(C)cc(C2=NNC(=NCC)SC2)c1C
Assay result: 56.2 µM (active)

Molecule: CCCOc1ccc(/C(O)=C2/C(=O)C(=O)N(CCN(C)C)C2c2ccc(OC)c(OC)c2)cc1 (stereo not drawn)
Assay result: 79.4 µM (active)

Molecule: COc1ccccc1N1CC(C(=O)Nc2nnc(SCC(=O)NCC3CCCO3)s2)CC1=O (stereo not drawn)
Assay result: 50.1 µM (active)

Molecule: CCOc1ccc(N2C(=O)/C(=C/c3ccc(C)o3)N(C)C2=S)cc1
Assay result: 3.98 µM (active)

Molecule: O=C(Cn1cc(/C=N/NC(=O)c2cccc(C(F)(F)F)c2)c2ccccc21)Nc1ccc(F)cc1
Assay result: 20 µM (active)

Molecule: Cc1ccc(-c2ccc(/C=C(\C#N)C(N)=S)o2)c([N+](=O)[O-])c1
Assay result: 35.5 µM (active)

---

# Test system: 4'-phosphopantetheinyl transferase ffp (Bacillus subtilis) (UniProt Q9F4F7)
# Test name: qHTS Assay for Inhibitors of Bacillus subtilis Sfp phosphopantetheinyl transferase (PPTase);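 note: the enzyme is Sfp with the accession as filed and its product quenches rhodamine fluorescence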;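 for largest response in the series, negative = inhibition: 0% = enzyme reaction without inhibitor and -100% = no enzyme wells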
# Cond: Biochemical Sfp PPTase activity
Hit rate of the full screen: of about 310,000 compounds, about 11,000 (3.5%) were called active. Inconclusive results (about 4%) are left out. Shown is part of a subset that was picked to be rich in actives.
Entries and their measured largest response in the series, negative = inhibition follow.
Metric name: largest response in the series, negative = inhibition (%)

Compound: Cc1cc(SCc2c(F)cccc2Cl)nc(=O)[nH]1
Assay result: 1.28
--
Compound: N=c1c2c3c(sc2ncn1N)CCCC3
Assay result: 13.2
--
Compound: O=C(O)COc1nsnc1N1CCOCC1
Assay result: 18.9
--
Compound: Cn1c(CSCC(=O)Nc2ccccc2)nnc1SCc1ccccc1
Assay result: -1.75
--
Compound: Cn1c(=O)c2c(SCC(=O)NCC3CCCO3)nc(CC(C)(C)C)nc2n(C)c1=O (stereo not drawn)
Assay result: -16
--
Compound: COc1ccc(-c2nc3c(c4c2C[C@H](c2ccccc2)OC4)CN(C(=O)C2CC2)CC3)c(C)c1
Assay result: 12.8
--
Compound: Cc1ccccc1NC(=O)CSc1nc2ccc(Nc3nc(N4CCOCC4)nc(N4CCOCC4)n3)cc2s1
Assay result: -16.9
--
Compound: Cc1cc(=O)[nH]c(Nc2cccc(Br)c2)n1
Assay result: -3.95
--
Compound: COc1ccc(C(C(=O)NCC2CCCO2)N(C(=O)Cn2nnc3ccccc32)c2ccc(NC(C)=O)cc2)cc1OC (stereo not drawn)
Assay result: 15.5
--
Compound: c1nnc2c3c4c(sc3ncn12)CCC4
Assay result: -1.58
--
Compound: CCNC(=O)N1CCCC(C(=O)c2ccc(-c3ccccc3)cc2)C1 (stereo not drawn)
Assay result: 4.19
--
Compound: CSc1ccccc1NC(=O)c1cc(Cl)sc1Cl
Assay result: 9.55
--
Compound: CC1CC(C)CN(CCCNC(=O)c2csc3c2CCCCC3)C1 (stereo not drawn)
Assay result: 5.49
--
Compound: O=C(CSc1ccc(-c2ccc(F)cc2)nn1)Nc1ccc2c(c1)OCCO2
Assay result: -25.1
--
Compound: COc1cccc(CNS(=O)(=O)c2ccc3c(c2)CC(C)N3C(=O)C2CCC2)c1 (stereo not drawn)
Assay result: 20.3
--
Compound: CN(CCNC(=O)c1cc2c(-c3ccccc3F)nn(C)c2s1)C1CCCCC1
Assay result: 5.98
--
Compound: COC(=O)c1[nH]c2cccc(C)c2c1NC(=O)CN1CCCc2ccccc21
Assay result: -4.7
--
Compound: COc1ccccc1-n1cn[nH]c1=S
Assay result: -24.2
--
Compound: COc1ccc(NC(=O)CSc2ccc(-c3ccco3)nn2)c(OC)c1
Assay result: -27.4
--
Compound: COc1ccc(Cn2c(=S)[nH]c3cc(C(=O)N4CCCCC4)ccc3c2=O)cc1
Assay result: -3.09
--
Compound: O=C(CCC1CCCC1)N=C1SC2CS(=O)(=O)CC2N1Cc1ccccc1 (stereo not drawn)
Assay result: 11.9
--
Compound: O/N=C(\C[n+]1ccccc1)c1ccc(Br)cc1
Assay result: -2.63
--
Compound: Nc1cc(N2CCCCCC2)c2nonc2c1[N+](=O)[O-]
Assay result: 12.7

---

# Test system: 4'-phosphopantetheinyl transferase ffp (Bacillus subtilis)
# Test name: qHTS Assay for Inhibitors of Bacillus subtilis Sfp phosphopantetheinyl transferase (PPTase);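 note: the enzyme is Sfp with the accession as filed and its product quenches rhodamine fluorescence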;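 for largest response in the series, negative = inhibition: 0% = enzyme reaction without inhibitor and -100% = no enzyme wells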
# Cond: Biochemical Sfp PPTase activity
Hit rate of the full screen: of about 310,000 compounds, about 11,000 (3.5%) were called active. About 4% were inconclusive and are not listed. Many of the other results were omitted from the sample, so actives are more common in it than they were.
Entries and their measured largest response in the series, negative = inhibition follow.
Metric name: largest response in the series, negative = inhibition (%)

Compound: CC1CCN(S(=O)(=O)c2ccc3c(ccn3CC(=O)O)c2)CC1
Assay result: 13.3
--
Compound: CCc1ccc(NC(=O)CS(=O)CC(=O)N2CCN(c3ccccc3F)CC2)cc1 (stereo not given)
Assay result: 2.49
--
Compound: CCc1nc(SCC(=O)NNC(=O)c2ccc(C)cc2)c2ccccc2n1
Assay result: 10
--
Compound: COC(=O)c1cc(NC(=O)c2cccnc2)ccc1N1CCOCC1
Assay result: 9.31
--
Compound: CCc1ccccc1NC(=O)CSc1nnc([C@@H](NC(=O)OC(C)(C)C)C(C)C)o1
Assay result: 0.218
--
Compound: O=C(NC(=S)Nc1ccc(S(=O)(=O)N2CCOCC2)cc1)c1ccccc1[N+](=O)[O-]
Assay result: -9.64
--
Compound: CCOC(=O)c1csc(CCNC(=O)c2oc3c(Cl)cc(C)cc3c2C)n1
Assay result: -19.2
--
Compound: C[C@H](NC(=O)OC(C)(C)C)c1nnc(SCC(=O)Nc2ccc(Br)cc2)o1
Assay result: 20
--
Compound: COc1ccccc1NC(=O)c1ccc2nc(N3C(=O)CCC3=O)sc2c1
Assay result: 10.7
--
Compound: CCn1c(SCC(=O)Nc2ccc(Br)cc2)nc2sc3c(c2c1=O)CCN(C)C3
Assay result: 2.9
